Test system: 463943-066-T-J2-PDC complex spheroid growth
Experiment: Anticancer human tumor 463943-066-T-J2-PDC patient-derived colon adenocarcinoma cell line growth inhibition [Asc]
Conditions: second compound 3 µM; first compound 1 µM; stronger effect = lower value
attributeMeasured: viability, T/C (%)

>>> recordedvalue("COc1c(OCCCN2CCOCC2)ccc2c3n(c(=NC(=O)c4cnc(N)nc4)nc12)CCN3 + CCN1C(C(=O)NC23CCC(C(=O)O)(CC2)CC3)C(c2cccc(Cl)c2F)C2(C(=O)Nc3cc(Cl)ccc32)C12CCCCC2")
29.8
>>> recordedvalue("CNC(C)C(=O)NC1CN(S(=O)(=O)c2cccc(S(=O)(=O)N3CCC4CCC(C(=O)NC(c5ccccc5)c5ccccc5)N4C(=O)C(NC(=O)C(C)NC)C3)c2)CCC2CCC(C(=O)NC(c3ccccc3)c3ccccc3)N2C1=O (centres undefined) + CCN1C(C(=O)NC23CCC(C(=O)O)(CC2)CC3)C(c2cccc(Cl)c2F)C2(C(=O)Nc3cc(Cl)ccc32)C12CCCCC2")
69.4
>>> recordedvalue("O=C(c1ccc(F)c(F)c1Nc1ccc(I)cc1F)N1CC(O)([C@@H]2CCCCN2)C1 + CCN1C(C(=O)NC23CCC(C(=O)O)(CC2)CC3)C(c2cccc(Cl)c2F)C2(C(=O)Nc3cc(Cl)ccc32)C12CCCCC2")
33.8
>>> recordedvalue("C=CC(=O)N1CCN(c2nc(=O)n(-c3c(C)ccnc3C(C)C)c3nc(-c4c(O)cccc4F)c(F)cc23)C(C)C1 (centres undefined) + CCN1C(C(=O)NC23CCC(C(=O)O)(CC2)CC3)C(c2cccc(Cl)c2F)C2(C(=O)Nc3cc(Cl)ccc32)C12CCCCC2")
77.6

###

System: 463943-066-T-J2-PDC complex spheroid growth
Experiment: Anticancer human tumor 463943-066-T-J2-PDC cell line growth inhibition [Asc];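 note: compound exposure lasted 7 days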
Details: compound alone; run of 11/07/2022
Parameter IC50: see the listing below.
attributeMeasured: IC50

>>> recordedvalue("Cc1c(S(C)(=O)=O)c(-c2cc(F)cc(N3CCN(c4ccc(NS(=O)(=O)c5ccc(NC(CCN6CCC(C(=O)OCCCP(=O)(O)O)CC6)CSc6ccccc6)c(S(=O)(=O)C(F)(F)F)c5)cc4)CC3)c2)c(-c2ccc(Cl)cc2)n1C(C)C (configuration not stated)")
"> 10 µM"
>>> recordedvalue("CCN1C(C(=O)NC23CCC(C(=O)O)(CC2)CC3)C(c2cccc(Cl)c2F)C2(C(=O)Nc3cc(Cl)ccc32)C12CCCCC2 (configuration not stated)")
"> 3 µM"

###

Below, each of the compounds is paired with its reported pIC50 value.
System: 463943-066-T-J2-PDC complex spheroid growth
Assay: Anticancer human tumor 463943-066-T-J2-PDC cell line growth inhibition [Asc];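 note: compound exposure lasted 7 days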
Settings: curve of first compound; second compound 0.00949 µM
pIC50: −log10 of the molar value.
attributeMeasured: pIC50

>>> recordedvalue("NC1CCC(NC2CC2c2ccccc2)CC1 (stereo not drawn) + CCN1C(C(=O)NC23CCC(C(=O)O)(CC2)CC3)C(c2cccc(Cl)c2F)C2(C(=O)Nc3cc(Cl)ccc32)C12CCCCC2")
"< 7.00"
>>> recordedvalue("C#Cc1c(F)ccc2cc(O)cc(-c3ncc4c(N5CC6CCC(C5)N6)nc(OCC56CCCN5CC(F)C6)nc4c3F)c12 (stereo not drawn) + CCN1C(C(=O)NC23CCC(C(=O)O)(CC2)CC3)C(c2cccc(Cl)c2F)C2(C(=O)Nc3cc(Cl)ccc32)C12CCCCC2")
"< 5.00"
>>> recordedvalue("Cn1ncnc1[C@H]1c2n[nH]c(=O)c3cc(F)cc(c23)N[C@@H]1c1ccc(F)cc1 + CCN1C(C(=O)NC23CCC(C(=O)O)(CC2)CC3)C(c2cccc(Cl)c2F)C2(C(=O)Nc3cc(Cl)ccc32)C12CCCCC2")
"< 7.00"
